- SYSTEM NAME: MspA-PBA (phenylboronic acid modified hetero-octameric (N90C)1(M2)7 MspA) (Mycolicibacterium smegmatis, UniProt A0QR29, D117C/D118N/D120N/D145R/D161R/E166K)
- Construct: H6 (hexa-histidine) (C); 3-(maleimide) phenylboronic acid (MPBA) adduct on the thiol of Cys90; made in house; host or cells: E. coli BL21 (DE3) pLysS, co-expression from pETDuet-1
- Assay type: binding, Mycobacterium smegmatis
- CONDITION SET: NMP 500 μM in cis, +200 mV, three independent measurements
Entries and their measured 1/τon follow.
MEASURED PROPERTY: 1/τon

- Nc1ccn([C@@H]2O[C@H](COP(=O)(O)O)[C@@H](O)[C@H]2O)c(=O)n1 [CMP, Cytidine-5′-monophosphate]: 1.01 ± 0.13 s⁻¹
- Nc1nc2c(ncn2[C@@H]2O[C@H](COP(=O)(O)O)[C@@H](O)[C@H]2O)c(=O)[nH]1 [GMP, guanosine-5′-monophosphate]: 1.00 ± 0.04 s⁻¹
- Nc1ncnc2c1ncn2[C@@H]1O[C@H](COP(=O)(O)O)[C@@H](O)[C@H]1O [AMP, adenosine-5′-monophosphate]: 1.39 ± 0.07 s⁻¹
- O=c1ccn([C@@H]2O[C@H](COP(=O)(O)O)[C@@H](O)[C@H]2O)c(=O)[nH]1 [UMP, uridine-5′-monophosphate]: 0.68 ± 0.09 s⁻¹

---

- SYSTEM NAME: MspA-PBA (phenylboronic acid modified hetero-octameric (N90C)1(M2)7 MspA) (Mycolicibacterium smegmatis, UniProt A0QR29, D117C/D118N/D120N/D145R/D161R/E166K)
- Construct: H6 (hexa-histidine) (C); 3-(maleimide) phenylboronic acid (MPBA) adduct on the thiol of Cys90; made in house; host or cells: E. coli BL21 (DE3) pLysS, co-expression from pETDuet-1
- Type: binding, Mycobacterium smegmatis
- CONDITION SET: NMP 300 μM in cis, +200 mV, three independent measurements
MEASURED PROPERTY: 1/τon

* Nc1ncnc2c1ncn2[C@@H]1O[C@H](COP(=O)(O)O)[C@@H](O)[C@H]1O [AMP, adenosine-5′-monophosphate] | 1.03 ± 0.11 s⁻¹
* Nc1nc2c(ncn2[C@@H]2O[C@H](COP(=O)(O)O)[C@@H](O)[C@H]2O)c(=O)[nH]1 [GMP, guanosine-5′-monophosphate] | 0.68 ± 0.02 s⁻¹
* O=c1ccn([C@@H]2O[C@H](COP(=O)(O)O)[C@@H](O)[C@H]2O)c(=O)[nH]1 [UMP, uridine-5′-monophosphate] | 0.49 ± 0.08 s⁻¹
* Nc1ccn([C@@H]2O[C@H](COP(=O)(O)O)[C@@H](O)[C@H]2O)c(=O)n1 [CMP, Cytidine-5′-monophosphate] | 0.66 ± 0.05 s⁻¹

---

- SYSTEM NAME: MspA-PBA (boronic acid appended hetero-octameric MspA) (Mycolicibacterium smegmatis, UniProt A0QR29, D117C/D118N/D120N/D145R/D161R/E166K)
- Construct: H6 (hexa-histidine) (C); 3-(maleimide) phenylboronic acid (MPBA) adduct on the thiol of Cys90; made in house; host or cells: E. coli BL21 (DE3) pLysS, co-expression from pETDuet-1
- Sequence (A0QR29 other isoform, or with tags, fused parts or gaps D117N/D118N/D120N/D145R/D161R/E166K): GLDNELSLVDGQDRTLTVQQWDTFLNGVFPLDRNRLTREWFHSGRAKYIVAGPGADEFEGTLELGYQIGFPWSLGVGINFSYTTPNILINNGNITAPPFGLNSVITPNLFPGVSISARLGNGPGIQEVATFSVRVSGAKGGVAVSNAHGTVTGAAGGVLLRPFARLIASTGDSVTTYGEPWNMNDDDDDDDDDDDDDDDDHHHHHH
- Sequence (A0QR29 other isoform, or with tags, fused parts or gaps D117C/D118N/D120N/D145R/D161R/E166K): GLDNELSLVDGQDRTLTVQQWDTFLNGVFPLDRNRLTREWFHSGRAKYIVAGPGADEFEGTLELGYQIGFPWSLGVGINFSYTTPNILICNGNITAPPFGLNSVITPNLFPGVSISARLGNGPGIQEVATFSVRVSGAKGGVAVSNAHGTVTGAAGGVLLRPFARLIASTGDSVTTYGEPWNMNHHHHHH
- TEST DETAILS: Single channel recording of alditol binding to MspA-PBA nanopore (standards and zero-sugar drinks)
- Set-up: species or system Mycobacterium smegmatis
- CONDITION SET: voltage series: +100 mV, glycerol 12 mM, other alditols 8 mM, N=3
MEASURED PROPERTY: 1/τon

- OCC(O)CO [glycerol]: 2.4 ± 0.3 s⁻¹
- OC[C@@H](O)[C@@H](O)[C@H](O)[C@@H](O)CO [D-sorbitol]: 1.70 ± 0.06 s⁻¹
- OC[C@@H](O)[C@@H](O)CO [erythritol]: 1.64 ± 0.10 s⁻¹
- OC[C@@H](O)[C@H](O)[C@@H](O)CO [xylitol]: 1.70 ± 0.03 s⁻¹
